Entry source: ChEMBL document CHEMBL3351723

System: Liver microsome
Experiment: Induction of mitochondrial function disruption in Wistar Han rat liver mitochondria energized with succinate assessed as State-3 level per mg of protein measured at 0.133 ug/mg of protein (reference value: 130.8 +/- 24.1 nmol/mg protein/min)
Type: functional
REPORTED PROPERTY: Activity (nmol/min)
Form entry: value (nmol/min) — number only.

Form field: Activity recorded for "C=C(C)[C@@H]1CC[C@]2(COC(=O)CC[n+]3ccc(N(C)C)cc3)CC[C@]3(C)[C@H](CC[C@@H]4[C@@]5(C)CC[C@H](OC(=O)CC[n+]6ccc(N(C)C)cc6)C(C)(C)[C@@H]5CC[C@]43C)[C@@H]12.[Cl-].[Cl-]" with Liver microsome (enter value)
111

Form field: Activity recorded for C=C(C)[C@@H]1CC[C@]2(COC(=O)C(CC)[n+]3ccc(N(C)C)cc3)CC[C@]3(C)[C@H](CC[C@@H]4[C@@]5(C)CC[C@H](OC(=O)C(CC)[n+]6ccc(N(C)C)cc6)C(C)(C)[C@@H]5CC[C@]43C)[C@@H]12 (some centres undefined) with Liver microsome (enter value)
131

Form field: Activity recorded for "C=C(C)[C@@H]1CC[C@]2(COC(=O)C[n+]3ccc(N(C)C)cc3)CC[C@]3(C)[C@H](CC[C@@H]4[C@@]5(C)CC[C@H](OC(=O)C[n+]6ccc(N(C)C)cc6)C(C)(C)[C@@H]5CC[C@]43C)[C@@H]12.[Cl-].[Cl-]" with Liver microsome (enter value)
130

Form field: Activity recorded for "C=C(C)[C@@H]1CC[C@]2(COC(=O)C[N+](C)(C)C(C)C)CC[C@]3(C)[C@H](CC[C@@H]4[C@@]5(C)CC[C@H](OC(=O)C[N+](C)(C)C(C)C)C(C)(C)[C@@H]5CC[C@]43C)[C@@H]12.[Cl-].[Cl-]" with Liver microsome (enter value)
121
